Where these numbers come from: PubChem BioAssay AID1745844

System: rodent lifetime carcinogenesis bioassay, tumor incidence TD50
Test: carcinogenic potency in animals, long-term in vivo studies, CPDB compilation (AID 1745844)
Conditions: rat; strain Fischer 344; males; in drinking water; site: liver; lesion: hyperplastic nodule; dosed 104 weeks; study length 127 weeks
READOUT: TD50 (mg/kg/day)
Answers are plain numbers, in mg/kg/day.

Q: Using the record for CN(CCc1ccccc1)N=O , report its TD50.
A: 0.184

---

Tested on: rodent lifetime carcinogenesis bioassay, tumor incidence TD50
Experiment: carcinogenic potency in animals, long-term in vivo studies, CPDB compilation (AID 1745844)
Conditions: hamster; strain Syrian Golden; males; by gavage; site: lung; lesion: several types; types named in the paper; dosed 66 weeks; study length 87 weeks
READOUT: TD50

Q: Using the record for CC1CN(N=O)CC(C)O1 (stereo unspecified) , report its TD50.
A: 1.21 mg/kg/day

---

Test system: rodent lifetime carcinogenesis bioassay, tumor incidence TD50
Assay: carcinogenic potency in animals, long-term in vivo studies, CPDB compilation (AID 1745844)
Conditions: mouse; strain B6C3F1; males; inhaled; site: forestomach; lesion: squamous-cell carcinoma; dosed 80 weeks; study length 105 weeks
READOUT: TD50

Q: Using the record for C=CC(=C)C , report its TD50.
A: 22200 mg/kg/day

---

Test system: rodent lifetime carcinogenesis bioassay, tumor incidence TD50
Test: carcinogenic potency in animals, long-term in vivo studies, CPDB compilation (AID 1745844)
Conditions: rat; strain Fischer 344; males; in feed; site: liver; lesion: hepatocellular adenoma + hepatocellular carcinoma + neoplastic nodule; dosed 104 weeks; study length 109 weeks
READOUT: TD50
Note to self: number, then unit, no commentary.

Q: Using the record for NCCCCCCCCCCC(=O)O , report its TD50.
A: 1100 mg/kg/day

---

Tested on: rodent lifetime carcinogenesis bioassay, tumor incidence TD50
Assay: carcinogenic potency in animals, long-term in vivo studies, CPDB compilation (AID 1745844)
Conditions: rat; strain Sprague-Dawley; females; by gavage; site: adrenal gland; lesion: pheochromocytoma; dosed 104 weeks; study length 104 weeks
READOUT: TD50 (mg/kg/day)
One number for each entry, in mg/kg/day.

Q: Using the record for C=CC=O , report its TD50.
A: 5.53

---

Test system: rodent lifetime carcinogenesis bioassay, tumor incidence TD50
Assay: carcinogenic potency in animals, long-term in vivo studies, CPDB compilation (AID 1745844)
Conditions: rat; strain Buffalo; females; in feed; site: pituitary gland; lesion: adenoma; dosed 53 weeks; study length 93 weeks
READOUT: TD50 (mg/kg/day)
Answers are plain numbers, in mg/kg/day.

Q: Using the record for CC(=O)N(C(C)=O)c1cccc2c1Cc1ccccc1-2 , report its TD50.
A: 8.63

---

Exercise: for every item that follows, state its recorded TD50.
Tested on: rodent lifetime carcinogenesis bioassay, tumor incidence TD50
Assay: carcinogenic potency in animals, long-term in vivo studies, CPDB compilation (AID 1745844)
Conditions: mouse; strain B6C3F1; females; by gavage; site: liver; lesion: hepatocellular carcinoma; dosed 78 weeks; study length 92 weeks

STRUCTURE_SMILES_STRING: ClC(Cl)C(Cl)Cl
TD50: 35.4 mg/kg/day

Now consider a different compound.
Q: Using the record for ClC(Cl)Cl , report its TD50.
A: 48 mg/kg/day

---

System: rodent lifetime carcinogenesis bioassay, tumor incidence TD50
Experiment: carcinogenic potency in animals, long-term in vivo studies, CPDB compilation (AID 1745844)
Settings: rat; strain Sprague-Dawley; females; in feed; site: kidney; lesion: tubular adenoma; dosed 46 weeks; study length 64 weeks
READOUT: TD50

Q: Using the record for O=CNNc1nc(-c2ccc([N+](=O)[O-])o2)cs1 , report its TD50.
A: 50.7 mg/kg/day

---

Test system: rodent lifetime carcinogenesis bioassay, tumor incidence TD50
Assay: carcinogenic potency in animals, long-term in vivo studies, CPDB compilation (AID 1745844)
Conditions: rat; strain Osborne-Mendel; both sexes; in feed; site: liver; lesion: nodular hyperplasia; dosed 104 weeks; study length 104 weeks
READOUT: TD50 (mg/kg/day)
One number for each entry, in mg/kg/day.

Q: Using the record for Cc1cc(C)c(N=Nc2c(O)c(S(=O)(=O)O)cc3cc(S(=O)(=O)O)ccc23)cc1C , report its TD50.
A: 639

---

Tested on: rodent lifetime carcinogenesis bioassay, tumor incidence TD50
Assay: carcinogenic potency in animals, long-term in vivo studies, CPDB compilation (AID 1745844)
Settings: mouse; strain B6C3F1; males; by gavage; site: lung; lesion: alveolar/bronchiolar adenoma + alveolar/bronchiolar carcinoma; dosed 105 weeks; study length 106 weeks
READOUT: TD50 (mg/kg/day)
One number for each entry, in mg/kg/day.

Q: Provide the documented TD50 with rodent lifetime carcinogenesis bioassay, tumor incidence TD50 as the system for ClC(Br)Br
A: 115

---

Test system: rodent lifetime carcinogenesis bioassay, tumor incidence TD50
Assay: carcinogenic potency in animals, long-term in vivo studies, CPDB compilation (AID 1745844)
Details: hamster; strain Syrian Golden; males; in feed; site: forestomach; lesion: squamous-cell carcinoma; dosed 94 weeks; study length 94 weeks
READOUT: TD50

Q: Provide the documented TD50 with rodent lifetime carcinogenesis bioassay, tumor incidence TD50 as the system for NC(=O)C(=Cc1ccc([N+](=O)[O-])o1)c1ccco1
A: 164 mg/kg/day

---

System: rodent lifetime carcinogenesis bioassay, tumor incidence TD50
Test: carcinogenic potency in animals, long-term in vivo studies, CPDB compilation (AID 1745844)
Details: rat; strain F344/DuCrj; males; in feed; site: urinary bladder; lesion: transitional-cell carcinoma; dosed 100 weeks; study length 100 weeks
READOUT: TD50

Q: Using the record for Cc1cc2c(nc1N)[nH]c1ccccc12 , report its TD50.
A: 28.6 mg/kg/day

---

Test system: rodent lifetime carcinogenesis bioassay, tumor incidence TD50
Assay: carcinogenic potency in animals, long-term in vivo studies, CPDB compilation (AID 1745844)
Settings: rat; strain Wistar; males; in drinking water; site: liver; lesion: hepatoma; dosed 87 weeks; study length 100 weeks
READOUT: TD50

Q: Using the record for CC(=O)OC1CC(C)OC(C)O1 (stereo unspecified) , report its TD50.
A: 716 mg/kg/day

---

System: rodent lifetime carcinogenesis bioassay, tumor incidence TD50
Assay: carcinogenic potency in animals, long-term in vivo studies, CPDB compilation (AID 1745844)
Details: rat; strain Osborne-Mendel; females; in feed; site: liver; lesion: hepatocellular adenoma + hepatocellular carcinoma + neoplastic nodule; dosed 78 weeks; study length 111 weeks
READOUT: TD50 (mg/kg/day)
Give bare numbers, in mg/kg/day.

Q: Using the record for Clc1ccc(C(c2ccc(Cl)cc2)C(Cl)Cl)cc1 , report its TD50.
A: 2080

---

Test system: rodent lifetime carcinogenesis bioassay, tumor incidence TD50
Test: carcinogenic potency in animals, long-term in vivo studies, CPDB compilation (AID 1745844)
Settings: rat; strain NZR/Gd; females; by gavage; site: liver; lesion: hepatocellular tumor; dosed 52 weeks; study length 171 weeks
READOUT: TD50

Q: Using the record for O=NN1CCCCCCCCCCCC1 , report its TD50.
A: 10.9 mg/kg/day

---

Tested on: rodent lifetime carcinogenesis bioassay, tumor incidence TD50
Experiment: carcinogenic potency in animals, long-term in vivo studies, CPDB compilation (AID 1745844)
Details: mouse; strain CD-1 HaM/ICR; males; in feed; site: any site (literature study); lesion: several types; types named in the paper; dosed 77 weeks; study length 98 weeks
READOUT: TD50 (mg/kg/day)
One number for each entry, in mg/kg/day.

Q: Using the record for Cc1cc(C)c(N)cc1C , report its TD50.
A: 40.3

---

Test system: rodent lifetime carcinogenesis bioassay, tumor incidence TD50
Experiment: carcinogenic potency in animals, long-term in vivo studies, CPDB compilation (AID 1745844)
Details: rat; strain Fischer 344; females; in drinking water; site: mammary gland; lesion: fibroadenoma; dosed 107 weeks; study length 107 weeks
READOUT: TD50

Q: Using the record for C=CC(N)=O , report its TD50.
A: 9.33 mg/kg/day

---

Test system: rodent lifetime carcinogenesis bioassay, tumor incidence TD50
Assay: carcinogenic potency in animals, long-term in vivo studies, CPDB compilation (AID 1745844)
Conditions: rat; strain Charles River CD1; females; in feed; site: urinary bladder; lesion: transitional-cell papilloma; dosed 104 weeks; study length 104 weeks
READOUT: TD50 (mg/kg/day)
Answers are plain numbers, in mg/kg/day.

Q: Using the record for CCOP(=O)=O.CCOP(=O)=O.CCOP(=O)=O.[Al+3] , report its TD50.
A: 452000

---

Test system: rodent lifetime carcinogenesis bioassay, tumor incidence TD50
Test: carcinogenic potency in animals, long-term in vivo studies, CPDB compilation (AID 1745844)
Conditions: rat; strain Fischer 344; males; in drinking water; site: Zymbal's gland; lesion: carcinoma; dosed 104 weeks; study length 104 weeks
READOUT: TD50 (mg/kg/day)
Answers are plain numbers, in mg/kg/day.

Q: Provide the documented TD50 with rodent lifetime carcinogenesis bioassay, tumor incidence TD50 as the system for Cc1ccc(S(=O)(=O)Oc2ccc(N=Nc3ccc(-c4ccc(N=Nc5c(O)ccc6cc(S(=O)(=O)O)cc(S(=O)(=O)O)c56)c(C)c4)cc3C)cc2)cc1
A: 29.8
